Sourced from ChEMBL document CHEMBL1141682

assay.protocol: Drug level in Sprague-Dawley rat liver at 10 mg/kg, po after 8 hrs
Assay type: ADME, organism-based
Parameters: dose 10 mg/kg, route oral
stated.conditions: read-out: Drug uptake
parameter: concentration at 8 h (ng/g)
Report only the number, with the unit ng/g understood.

Look at this compound and give its reported concentration at 8 h. `COc1ccc2c(O[C@@H]3C[C@H]4C(=O)N[C@]5(C(=O)NS(=O)(=O)C6(C)CC6)C[C@H]5/C=C\CCCCCC(=O)N4C3)cc(-c3nc(C(C)C)cs3)nc2c1Cl` 7660

----------
assay.protocol: Drug level in Sprague-Dawley rat heart at 10 mg/kg, po after 8 hrs
Assay type: ADME, organism-based
Design: dose 10 mg/kg, route oral
parameter: concentration at 8 h (ng/g)
Report only the number, with the unit ng/g understood.

Look at this molecule and give its reported concentration at 8 h. `COc1ccc2c(O[C@@H]3C[C@H]4C(=O)N[C@]5(C(=O)NS(=O)(=O)C6(C)CC6)C[C@H]5/C=C\CCCCCC(=O)N4C3)cc(-c3nc(C(C)C)cs3)nc2c1Cl` 35.8

----------
assay.protocol: Permeability from apical to basolateral side of human Caco-2 cells
Format: ADME, cell-based
parameter: Papp A→B (×10⁻⁶ cm/s)
Report only the number, with the unit ×10⁻⁶ cm/s understood.

Look at this compound and give its reported Papp A→B. `COc1ccc2c(O[C@@H]3C[C@H]4C(=O)N[C@]5(C(=O)NS(=O)(=O)C6(C)CC6)C[C@H]5/C=C\CCCCCC(=O)N4C3)cc(-c3nc(C(C)C)cs3)nc2c1Cl` 11.1

----------
assay.protocol: Volume of distribution in steady state in Sprague-Dawley rat at 2 mg/kg, iv
Assay type: ADME, organism-based
Design: dose 2 mg/kg, route intravenous
stated.conditions: in vivo, read-out: Vdss
parameter: Vd
Form field: result (number plus unit)

Look at this compound and give its reported Vd. `COc1ccc2c(O[C@@H]3C[C@H]4C(=O)N[C@]5(C(=O)NS(=O)(=O)C6(C)CC6)C[C@H]5/C=C\CCCCCC(=O)N4C3)cc(-c3nc(C(C)C)cs3)nc2c1Cl` 2.75 L/kg

----------
assay.protocol: Half life (2 to 8 hrs) in Sprague-Dawley rat at 2 mg/kg, iv
Format: ADME, organism-based
Parameters: dose 2 mg/kg, route intravenous
stated.conditions: in vivo
parameter: half-life
Form field: result (number plus unit)

Look at this compound and give its reported half-life. `COc1ccc2c(O[C@@H]3C[C@H]4C(=O)N[C@]5(C(=O)NS(=O)(=O)C6(C)CC6)C[C@H]5/C=C\CCCCCC(=O)N4C3)cc(-c3nc(C(C)C)cs3)nc2c1Cl` 2.49 h

----------
assay.protocol: Metabolic stability in human liver microsomess after 15 mins at 5 uM
Assay type: ADME, Microsome
stated.conditions: liver microsomes
parameter: metabolized at 0.25 h, 5 µM

Look at this compound and give its reported metabolized at 0.25 h, 5 µM. `COc1ccc2c(O[C@@H]3C[C@H]4C(=O)N[C@]5(C(=O)NS(=O)(=O)C6CC6)C[C@H]5/C=C\CCCCCC(=O)N4C3)cc(-c3nc(C(C)C)cs3)nc2c1` 82.4%

Look at this compound and give its reported metabolized at 0.25 h, 5 µM. `COc1ccc2c(O[C@@H]3C[C@H]4C(=O)N[C@]5(C(=O)NS(=O)(=O)C6CC6)C[C@H]5/C=C\CCCCCCC(=O)N4C3)cc(-c3nccs3)nc2c1C` 98.4%

Look at this compound and give its reported metabolized at 0.25 h, 5 µM. `COc1ccc2c(O[C@@H]3C[C@H]4C(=O)N[C@]5(C(=O)NS(=O)(=O)C6CC6)C[C@H]5/C=C\CCCCCCC(=O)N4C3)cc(-c3nc(C(C)C)cs3)nc2c1` 98%

Look at this compound and give its reported metabolized at 0.25 h, 5 µM. `COc1ccc2c(O[C@@H]3C[C@H]4C(=O)N[C@]5(C(=O)NS(=O)(=O)C6CC6)C[C@H]5/C=C\CCCCCCC(=O)N4C3)cc(-c3nccs3)nc2c1Br` 100%

Look at this compound and give its reported metabolized at 0.25 h, 5 µM. `COc1ccc2c(O[C@@H]3C[C@H]4C(=O)N[C@]5(C(=O)NS(=O)(=O)C6CC6)C[C@H]5/C=C\CCCCCCC(=O)N4C3)cc(-c3nccs3)nc2c1` 100%
